- MEASUREMENT DESCRIPTION: Incorporation into clots induced in a rat model (rat inferior vena cava model)
- Format: in vivo, rat (Male Wistar)
- MEASUREMENT SETUP: Fresh Clots: injected 5 min post-induction, sacrificed after 60 min
*1 amine or outer side, *2 acyl side, *3 side chain or, on linkers, in order; H or OH if unused. Glutaryl = O=C(CCCC(=O)[*:2])[*:1]
MEASURED PROPERTY: Rel. Conc. (cpm/g of clot by dose/g animal)

| SUBSTANCE | ENDPOINT RESULT |
| --- | --- |
| Ac-NQEQVSPYTLLKG-Hynic (also: 99mTc complex) [^99mTc-Cmpd 4] | 6.5 |
| Ac-NQEAVSPYTLLKG-Pn216 (also: 99mTc complex) [^99mTc-Cmpd 13] | 7.9 |
| Ac-NQEQVSPYTLLKG-(PEG)10k-Pn216 (Ac-NQEQVSPYTLLKG-{PEG 10k-Pn216}; also: 99mTc complex) [^99mTc-Cmpd 41] | 2.2 |
| p-EAQIVG-Pn44 [^99mTc-Cmpd 46] | 2.0 |
| Ac-NQEQVSP-Nal(2)-TLLKG-Pn216 [^99mTc-Cmpd 20] | 6.5 |
| Pn44-CO(CH2)3CO-NQEQVSPYTLLKG-NH2 ({Pn44-Glutaryl}-NQEQVSPYTLLKG-NH2; also: 99mTc complex) [^99mTc-Cmpd 38] | 5.4 |
| Cyclo-[NQEQVSPYTLLKG] (cyclo(NQEQVSPYTLLKG); also: 123I label, place not given here) [^123I-Cmpd 44] | 1.1 |
| Ac-GQDPVKG-Pn216 (also: 99mTc complex) [^99mTc-Cmpd 48] | 1.0 |
| Fmoc-NQEQVSP(I-Y)TLLKG-Pn216 [^99mTc-Cmpd 26] | 41.4 |
| Ac-NQEQVG-Pn44 [^99mTc-Cmpd 17] | 3.7 |
| Ac-NQEQVSP(D-Y)TLL(D-K)βAla-Pn216 [^99mTc-Cmpd 33] | 7.8 |
| NQEQVSPYTLLK [^123I-Cmpd 1, reference compound] | 1.6 |
| Ac-NQQQVSPYTLLKG-Pn216 (also: 99mTc complex) [^99mTc-Cmpd 15] | 8.3 |
| Pn216-CO(CH2)3CO-NQEQVSPYTLLKG-NH2 ({Pn216-Glutaryl}-NQEQVSPYTLLKG-NH2; also: 99mTc complex) [^99mTc-Cmpd 39] | 9.0 |
| Ac-NQEQVSP(D-Y)TLL(D-K)G-Pn216 [^99mTc-Cmpd 29] | 13.0 |
| Ac-NQEQVSPYTLLKG-NH2 [^123I-Cmpd 2] | 14.5 |
| Ac-NQEQVSPYTLLKG-Pn44 (also: 99mTc complex) [^99mTc-Cmpd 3] | 5.1 |
| Ac-NQEQVSP(I2-Y)TLLKG-Pn216 [^99mTc-Cmpd 23] | 18.2 |
| Ac-NQEQVSP(pBr-F)TLLKG-Pn216 [^99mTc-Cmpd 21] | 7.4 |
| Ac-NQEQVSP(I-Y)TLLKG-Pn216 [^99mTc-Cmpd 22] | 13.0 |
| (CF3)2(C6H3)-NQEQVSPYTLLKG-Pn216 ({(CF3)2(C6H3)}-NQEQVSPYTLLKG-Pn216; also: 99mTc complex) [^99mTc-Cmpd 10] | 6.5 |
| Ac-N—CH2NH2-QEQVSP(D-Y)TLL(D-K)G-Pn216 [^99mTc-Cmpd 34] | 1.8 |
| Ac-LEFDTQSKNILG-Pn216 (also: 99mTc complex) [^99mTc-Cmpd 47] | 2.2 |
| Ac-(D-N)QEQVSP(D-Y)TLL(D-K)G-Pn216 [^99mTc-Cmpd 32] | 4.6 |
